hBuChE (Homo sapiens, UniProt P06276) measurements of IC50, listed per entry.
# unit: µM | format: bare number

Illustrative cases are given below, each with its answer.
input: Test system hBuChE (Homo sapiens, UniProt P06276); read-out IC50; what value for COc1ccc2c(c1)c(CC(=O)NN=Cc1cccc(O)c1)c(C)n2C(=O)c1ccc(Cl)cc1 ?
output: 98.2

input: Next up: COc1ccc2c(c1)c(CC(=O)NN=Cc1cccc(O)c1O)c(C)n2C(=O)c1ccc(Cl)cc1
output: 668

input: Next up: COc1ccc2c(c1)c(CC(=O)NN=Cc1ccc(O)cc1)c(C)n2C(=O)c1ccc(Cl)cc1
output: 95.3

Continuing:
input: Test system hBuChE (Homo sapiens, UniProt P06276); read-out IC50; what value for COc1ccc2c(c1)c(CC(=O)NN=Cc1c(O)cccc1O)c(C)n2C(=O)c1ccc(Cl)cc1 ?
output: 689

###

hAChE (Homo sapiens, UniProt P22303) measurements of log10 IC50, listed per entry.
Sequence (P22303 32-614): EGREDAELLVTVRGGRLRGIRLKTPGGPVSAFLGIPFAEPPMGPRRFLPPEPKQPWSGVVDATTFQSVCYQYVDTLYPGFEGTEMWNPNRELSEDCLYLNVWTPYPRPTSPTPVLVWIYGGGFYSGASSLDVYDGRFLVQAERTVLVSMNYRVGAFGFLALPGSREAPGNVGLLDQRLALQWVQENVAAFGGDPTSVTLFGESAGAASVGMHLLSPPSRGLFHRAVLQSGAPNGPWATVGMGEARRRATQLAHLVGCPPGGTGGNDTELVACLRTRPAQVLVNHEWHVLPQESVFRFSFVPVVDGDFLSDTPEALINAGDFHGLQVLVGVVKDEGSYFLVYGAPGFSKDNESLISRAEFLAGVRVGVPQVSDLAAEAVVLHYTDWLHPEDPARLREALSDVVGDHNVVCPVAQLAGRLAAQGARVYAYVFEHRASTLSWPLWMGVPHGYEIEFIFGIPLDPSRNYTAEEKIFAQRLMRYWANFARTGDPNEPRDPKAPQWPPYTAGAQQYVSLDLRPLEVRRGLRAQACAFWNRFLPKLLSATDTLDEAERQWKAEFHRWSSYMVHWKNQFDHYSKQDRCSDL
// stored as log10 of IC50 expressed in µM

input: GET /values?readout=log10 IC50&item= COc1ccc2c(c1)c(CC(=O)NN=Cc1c(O)cccc1O)c(C)n2C(=O)c1ccc(Cl)cc1
output: 1.85

###

Listing: Selectivity ratio of selected compounds
biological target: hAChE (Homo sapiens, UniProt P22303); construct: purchased Sigma Aldrich; assay: biochemical; settings: (IC50 of BuChE)/(IC50 of AChE)
Lab note: jot the number down without any unit.

Illustrative cases are given below, each with its answer.
input: GET /values?readout=Selectivity ratio&item= COc1ccc2c(c1)c(CC(=O)NN=Cc1cccc(O)c1O)c(C)n2C(=O)c1ccc(Cl)cc1 [IND-42]
output: 5.44

input: Next up: COc1ccc2c(c1)c(CC(=O)NN=Cc1ccc(O)cc1)c(C)n2C(=O)c1ccc(Cl)cc1 [IND-30]
output: 22.92

Continuing:
input: GET /values?readout=Selectivity ratio&item= COc1ccc2c(c1)c(CC(=O)NN=Cc1cccc(O)c1)c(C)n2C(=O)c1ccc(Cl)cc1 [IND-24]
output: 7.83

input: Next up: COc1ccc2c(c1)c(CC(=O)NN=Cc1c(O)cccc1O)c(C)n2C(=O)c1ccc(Cl)cc1 [IND-40]
output: 9.77

###

Listing: % free radicle scavenging, mean ± SE of selected compounds
test: Antioxidant potential by DPPH assay; conditions: 100 μM
# unit: % | format: bare number

input: GET /values?readout=% free radicle scavenging, mean ± SE&item= COc1ccc2c(c1)c(CC(=O)NN=Cc1c(O)cccc1O)c(C)n2C(=O)c1ccc(Cl)cc1
output: 50.39

###

Experiment: Antioxidant potential by DPPH assay
Settings: 50 μM
Excerpt: Assessment of the toxicity is the prerequisite study for the synthetic derivatives. […] AChE enzyme provides the site for the aggregation of the Aβ1–42.
Mark satisfied only when % free radicle scavenging, mean ± SE stays strictly below 20%. Values equal to the cut-off are not satisfied.

input: Problem: For the compound COc1ccc2c(c1)c(CC(=O)NN=Cc1c(O)cccc1O)c(C)n2C(=O)c1ccc(Cl)cc1 , is % free radicle scavenging, mean ± SE under 20%?
output: not satisfied

input: Next up: O=C1O[C@H]([C@@H](O)CO)C(O)=C1O [Ascorbic acid, reference compound]
output: not satisfied

input: Next up: COc1ccc2c(c1)c(CC(=O)NN=Cc1ccc(O)cc1)c(C)n2C(=O)c1ccc(Cl)cc1
output: satisfied

input: Next up: COc1ccc2c(c1)c(CC(=O)NN=Cc1ccccc1OC)c(C)n2C(=O)c1ccc(Cl)cc1
output: satisfied

input: Next up: COc1ccc2c(c1)c(CC(=O)NN=Cc1cccc(O)c1)c(C)n2C(=O)c1ccc(Cl)cc1
output: satisfied

input: Next up: COc1ccc2c(c1)c(CC(=O)NN=Cc1cccc(O)c1O)c(C)n2C(=O)c1ccc(Cl)cc1
output: satisfied

input: Next up: COc1cccc(C=NNC(=O)Cc2c(C)n(C(=O)c3ccc(Cl)cc3)c3ccc(OC)cc23)c1
output: satisfied
